Source of measurements: paper PMC6384821

- test-target: AChE enzyme from Electrophorus electricus (Electrophorus electricus)
- Construct: purchased Sigma-Aldrich Co., LLC
- Sequence (O42275 24-633): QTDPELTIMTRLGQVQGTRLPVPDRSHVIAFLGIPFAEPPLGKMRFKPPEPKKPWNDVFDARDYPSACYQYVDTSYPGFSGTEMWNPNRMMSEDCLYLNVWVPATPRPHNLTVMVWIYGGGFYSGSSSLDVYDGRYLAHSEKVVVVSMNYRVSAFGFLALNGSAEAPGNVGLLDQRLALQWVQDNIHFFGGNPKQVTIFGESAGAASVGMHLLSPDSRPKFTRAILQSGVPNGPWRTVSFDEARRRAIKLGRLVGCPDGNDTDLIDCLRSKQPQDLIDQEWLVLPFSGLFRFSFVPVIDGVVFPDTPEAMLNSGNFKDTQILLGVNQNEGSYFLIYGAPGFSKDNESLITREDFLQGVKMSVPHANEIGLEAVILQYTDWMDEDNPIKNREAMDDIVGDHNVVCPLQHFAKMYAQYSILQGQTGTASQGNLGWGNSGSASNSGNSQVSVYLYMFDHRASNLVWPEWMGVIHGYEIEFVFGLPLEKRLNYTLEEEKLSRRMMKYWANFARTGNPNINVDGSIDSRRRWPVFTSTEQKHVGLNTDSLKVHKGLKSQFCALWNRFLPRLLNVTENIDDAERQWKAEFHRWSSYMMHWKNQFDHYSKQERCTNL
- assay-remarks: biochemical
- Assay type: biochemical
- condition-context: at 100 µM
- Experimental: For assessment of AChE inhibitory activity, we used a colorimetric microplate assay based on the colour change during reaction of ACh with Ellman’s reagent. […] Electrophysiological data were analysed using pClamp 10.2 (Molecular Devices, San Jose, CA, USA). During analysis, traces were baseline subtracted and responses to individual applications quantified as peak-current amplitudes. […] AChE inhibition data were analysed using GraphPad Prism 7. […]
property-label: inhibition at 100 µM
Form field: result (number plus unit)

Inquiry: Value lookup for inhibition at 100 µM; key = COCCOc1cc(-c2noc(C3CCCN3Cc3ccccc3F)n2)ccn1 (stereo not drawn)
Reply text: 23.9%

Inquiry: Please look up its inhibition at 100 µM: CN1CCOC(c2ccccc2)c2ccccc2C1 (stereo not drawn) [Compound 13, Nefopam, reference compound]
Reply text: 0%

Inquiry: Consider the compound shown here: COc1ccc(-c2cc3ccc(O)c(CN4CCCC4)c3oc2=O)cc1OC What is its recorded inhibition at 100 µM?
Reply text: 38.3%

Inquiry: Given the compound Cc1oc2c(CN(C)C)c(O)ccc2c(=O)c1-c1nc2ccccc2s1 , what is its reported inhibition at 100 µM?
Reply text: 78.5%

Inquiry: # lookup: inhibition at 100 µM of O=C1/C(=C/c2cccnc2)Oc2c1ccc(O)c2CN1CCCC1
Reply text: 56.7%

Inquiry: inhibition at 100 µM lookup needed for COc1cc2c(cc1OC)-c1cc(OCCN3CCCCC3)nc(=O)n1CC2 , thanks.
Reply text: 88.1%

Inquiry: I am curious: what inhibition at 100 µM value has been reported for CC(CN(C)C)CN1c2ccccc2Sc2ccc(C#N)cc21 (stereo not drawn) [Compound 10, Cyamemazine, reference compound] ?
Reply text: 32.7%

Inquiry: Find the recorded inhibition at 100 µM belonging to CN1CCC(O)(c2ccc(F)cc2)C(C(=O)c2ccc(F)cc2)C1 (stereo not drawn) and report it.
Reply text: 14%

Inquiry: Field request: inhibition at 100 µM | item: CN1CCc2c(c(NCCO)nc3n[nH]c(N)c23)C1
Reply text: 18%

Inquiry: I'd like to know its inhibition at 100 µM. The compound in question is CN(C)Cc1c(O)ccc2cc(-c3ccccc3)c(=O)oc12
Reply text: 6.5%

Inquiry: For the compound shown here, CN1CC[C@@]23C=C[C@H](O)C[C@@H]2Oc2c(O)ccc(c23)C1 , give the reported inhibition at 100 µM.
Reply text: 96.4%

Inquiry: Recorded inhibition at 100 µM of COCCOc1cc(-c2noc(C3CCCN3C(C)C)n2)ccn1 (stereo not drawn) , please.
Reply text: 30.3%

* * *

- test-target: human α7 nAChR expressed in Xenopus oocytes (Homo sapiens, UniProt P36544)
- Construct: expressed in transfected cells; host or cells: Xenopus laevis oocytes (cRNA injection, co-injected with RIC3 cRNA 5:1)
- Sequence (P36544 23-502): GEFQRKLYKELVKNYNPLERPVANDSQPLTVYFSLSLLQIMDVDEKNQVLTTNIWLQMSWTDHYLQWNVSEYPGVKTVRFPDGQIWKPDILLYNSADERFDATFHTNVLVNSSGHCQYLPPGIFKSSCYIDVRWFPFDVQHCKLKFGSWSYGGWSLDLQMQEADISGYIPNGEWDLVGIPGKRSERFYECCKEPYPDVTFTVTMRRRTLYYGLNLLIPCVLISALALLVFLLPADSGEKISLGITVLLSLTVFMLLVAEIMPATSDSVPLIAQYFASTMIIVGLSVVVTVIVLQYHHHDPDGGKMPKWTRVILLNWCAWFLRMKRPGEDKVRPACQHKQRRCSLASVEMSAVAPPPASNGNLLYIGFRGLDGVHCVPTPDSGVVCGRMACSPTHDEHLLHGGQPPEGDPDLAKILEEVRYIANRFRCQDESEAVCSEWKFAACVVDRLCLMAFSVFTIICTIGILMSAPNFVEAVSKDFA
- assay-remarks: Two-electrode voltage-clamp electrophysiology, pre-incubation then co-application with 30 µM ACh, holding potential −60 mV
- Format: cell-based
- condition-context: at 100 µM; 30 µM ACh-evoked response; read-out: α7 nAChR % Inhibition
Assign true (1) whenever inhibition at 100 µM does not fall below 80%; assign false (0) whenever it does.

Inquiry: Quick check: does CN(C)Cc1c(O)ccc2cc(-c3ccccc3)c(=O)oc12 [Compound 14] have inhibition at 100 µM greater than or equal to 80%?
Reply text: true (1)

Inquiry: Decide: inhibition at 100 µM of COc1ccc(-c2cc3ccc(O)c(CN4CCCC4)c3oc2=O)cc1OC [Compound 12] >= 80%?
Reply text: true (1)

Inquiry: Record COc1ccc2c3c1O[C@H]1C[C@@H](O)C=C[C@@]31CCN(C)C2 [Compound 1, galantamine, reference compound] ; criterion: inhibition at 100 µM no lower than 80%. Met?
Reply text: false (0)

Inquiry: Could you verify whether the entry CC(CN(C)C)CN1c2ccccc2Sc2ccc(C#N)cc21 (centres unmarked) [Compound 10, Cyamemazine, reference compound] shows inhibition at 100 µM of no less than 80%?
Reply text: true (1)

Inquiry: Threshold query (inhibition at 100 µM >= 80%) on CN1CC[C@@]23C=C[C@H](O)C[C@@H]2Oc2c(O)ccc(c23)C1 [Compound 6, sanguinine]
Reply text: false (0)

Inquiry: // inclusive: inhibition at 100 µM at least 80%? input: COCCOc1cc(-c2noc(C3CCCN3Cc3ccccc3F)n2)ccn1 (centres unmarked) [Compound 17]
Reply text: true (1)

Inquiry: Threshold query (inhibition at 100 µM >= 80%) on COc1cc2c(cc1OC)-c1cc(OCCN3CCCCC3)nc(=O)n1CC2 [Compound 9]
Reply text: true (1)

Inquiry: Hello, I need to know if CN1CCC(O)(c2ccc(F)cc2)C(C(=O)c2ccc(F)cc2)C1 (centres unmarked) [Compound 11, Flazalone] has measured inhibition at 100 µM not below 80%. Thanks!
Reply text: true (1)

Inquiry: State whether the measured inhibition at 100 µM reaches 80%, counting equality as reaching it, for CN1CCc2c(c(NCCO)nc3n[nH]c(N)c23)C1 [Compound 18]
Reply text: false (0)

* * *

- test-target: human α7 nAChR expressed in Xenopus oocytes (Homo sapiens)
- Construct: expressed in transfected cells; host or cells: Xenopus laevis oocytes (cRNA injection, co-injected with RIC3 cRNA 5:1)
- assay-remarks: Two-electrode voltage-clamp electrophysiology, pre-incubation then co-application with 30 µM ACh, holding potential −60 mV
- Type: cell-based
- condition-context: α7 nAChR pIC50 ± SEM, 30 µM ACh-evoked currents, −60 mV
property-label: pIC50
Conceptually, pIC50 converts a concentration in mol/L into minus its log10.

Inquiry: Record request: pIC50 value, item Cc1oc2c(CN(C)C)c(O)ccc2c(=O)c1-c1nc2ccccc2s1
Reply text: 4.46

Inquiry: // returns reported pIC50 for input CN1CCOC(c2ccccc2)c2ccccc2C1 (centres unmarked) [Compound 13, Nefopam, reference compound]
Reply text: 4.88

Inquiry: Requested field: pIC50. Item: CC(CN(C)C)CN1c2ccccc2Sc2ccc(C#N)cc21 (centres unmarked) [Compound 10, Cyamemazine, reference compound]
Reply text: 5.44

Inquiry: For COc1cc2c(cc1OC)-c1cc(OCCN3CCCCC3)nc(=O)n1CC2 , what is its reported pIC50?
Reply text: 4.84

Inquiry: I have this compound here, COc1ccc(-c2cc3ccc(O)c(CN4CCCC4)c3oc2=O)cc1OC , and I need its recorded pIC50.
Reply text: 5.08
